# credit: the RNAGym collection of RNA variant scans (doi:10.1002/anie.201605470)

Exercise: for every item that follows, state its recorded self-cleavage.
B1: Osa-1-4 twister ribozyme (parent)
chain: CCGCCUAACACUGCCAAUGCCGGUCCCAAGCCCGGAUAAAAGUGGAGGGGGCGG

Variants of: B1
Assay: self-cleavage, relative activity (ratio to wild type); higher = more cleavage; co-transcriptional
Numbers only.

Below, 3 variants whose answers are already recorded.
MUTATION_KEY	self-cleavage
C11U G50U	0.88
C9G G45C	0.04
A17U C32A	0.13

Alright, here's another variant for you.
Entry `U24C` needs its self-cleavage filled in; supply it.
0.53
